Data origin: ChEMBL document CHEMBL1649561

System: Salmonella enterica
Method Description: Antibacterial activity against Salmonella enterica ATCC 14028 by CLSI method
Format: functional
Overview of reported MIC across a group of compounds:

Answered examples (2):
# Compound, MIC
measured = [
    ("CC/N=c1\\cc2oc3cc(NCC)c(C)cc3c(-c3ccccc3C(=O)OCC)c-2cc1C.Cl [RHODAMINE 6G HYDROCHLORIDE]", "> 512 µg/mL"),
    ("CN(C)c1ccc2nc3ccc(N(C)C)cc3[s+]c2c1.[Cl-] [METHYLENE BLUE ANHYDROUS]", "> 512 µg/mL"),
]

// next item, MIC requested
Qu. Data request, read-out MIC, for CCOc1ccc2ccccc2c1C(=O)N[C@@H]1C(=O)N2[C@@H]1SC(C)(C)[C@@H]2C(=O)O [NAFCILLIN]
Ans. > 512 µg/mL
